Cited source for all entries: ChEMBL document CHEMBL3797132

# target-entity: P2Y purinoceptor 12 (Homo sapiens, UniProt Q9H244)
# Sequence (Q9H244 whole entry): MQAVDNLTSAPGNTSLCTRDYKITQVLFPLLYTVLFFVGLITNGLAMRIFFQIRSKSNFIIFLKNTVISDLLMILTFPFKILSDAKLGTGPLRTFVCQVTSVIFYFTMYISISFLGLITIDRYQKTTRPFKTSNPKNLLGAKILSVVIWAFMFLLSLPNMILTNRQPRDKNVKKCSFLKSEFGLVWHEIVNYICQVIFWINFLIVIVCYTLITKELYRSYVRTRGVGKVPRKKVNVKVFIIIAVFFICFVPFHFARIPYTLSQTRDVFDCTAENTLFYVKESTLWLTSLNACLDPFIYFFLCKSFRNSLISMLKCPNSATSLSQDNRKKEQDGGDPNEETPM
# test-name: Binding affinity to P2Y12 receptor (unknown origin)
pIC50: −log10 of the molar value.
assay-endpoint: pIC50

entry-smiles	readout-number
CCc1cnc(-c2cc(C#N)c(N3CC(C(=O)NS(=O)(=O)c4ccc(Cl)s4)C3)nc2C)o1	6.36
CCOC(=O)c1cc(C#N)c(N2CCN(C(=O)NS(=O)(=O)c3ccc(Cl)s3)CC2)nc1C	7.40
CCOC(=O)c1cc(C#N)c(N2CC(C(=O)NS(=O)(=O)c3ccc(Cl)s3)C2)nc1C	7.22

----------
Listing of entries alongside the reported IC50.
# target-entity: P2Y purinoceptor 12 (Homo sapiens, UniProt Q9H244)
# test-name: Displacement of [3H]-2-Mes-ADP from human P2Y12 receptor

entry-smiles	IC50 (nM)
CCOC(=O)N1CCN(C(=O)[C@H](CCC(=O)O)NC(=O)c2cc(OC(C)(C)C(=O)O)c3ccc(C)cc3n2)CC1	5.3
CCOC(=O)N1CCN(C(=O)[C@H](CCC(=O)O)NC(=O)c2cc(OC(C)(C)C(=O)OCC)c3ccc(C)cc3n2)CC1	29
